Test system: Passive Cutaneous Anaphylaxis (PCA)
Assay: Inhibitory effect on passive cutaneous anaphylaxis (PCA) in rats (Test Example 1)
Type: in vivo, rat (male SD)
Conditions: Rattus norvegicus, po, 0.05 mg/kg, read-out: Inhibitory rate
In this section we review reported inhibition at 0.05 mg/kg values for a set of molecules.
Note: unit % is implicit; provide only the numeric part.

>  <molecule>
O=C(O)COCCN1CCN2c3ccccc3Cc3ccccc3[C@@H]2C1 [Example 65, monohydrate]

>  <readoutUnits>
%

>  <inhibition at 0.05 mg/kg>
45

$$$$

Task: Data request, read-out inhibition at 0.05 mg/kg, for CCOC(=O)CCCN1CCN2c3ccccc3Cc3ccccc3C2C1 (racemic)
Result: 55

Task: Would you kindly repeat that for O=C(O)COCCN1CCN2c3ccccc3Cc3ccccc3C2C1 (stereo not drawn) ?
Result: 62

Task: Moving on to O=C(O)CCCCCN1CCN2c3ccccc3Cc3ccccc3C2C1 (racemic)
Result: 46

Task: What about this molecule? `O=C(O)COCCN1CCN2c3ccccc3Cc3ccccc3[C@H]2C1`
Result: 59

Task: Do the same for NC(=O)COCCN1CCN2c3ccccc3Cc3ccccc3C2C1 (stereo not drawn) please
Result: 44
